Test system: PC-3
Test: Cytotoxicity against human PC-3 cells assessed as cell growth inhibition measured after 24 hrs by MTT assay
Format: functional, cell-based
Settings: PC-3, 24 h
READOUT_TYPE: pIC50
Remember the convention: pIC50 equals -log10 of concentration in molar.

In: Fill in the blank: the reported pIC50 of C/C(=C1/C(=O)C[C@H]2[C@@H]3[C@@H]4O[C@@H]4[C@@]4(O)CC=CC(=O)[C@]4(C)[C@H]3CC(=O)[C@]12C)[C@H]1C[C@]2(C)O[C@]2(C)C(=O)O1 is ____.
Out: 4.17

###

Test system: MCF7
Experiment: Cytotoxicity against human MCF7 cells assessed as cell growth inhibition measured after 24 hrs by MTT assay
Format: functional, cell-based
Settings: MCF7, 24 h
pIC50: −log10 of the molar value.
READOUT_TYPE: pIC50

In: Which pIC50 value belongs to C/C(=C1/C(=O)C[C@H]2[C@@H]3[C@@H]4O[C@@H]4[C@@]4(O)CC=CC(=O)[C@]4(C)[C@H]3CC(=O)[C@]12C)[C@H]1C[C@]2(C)O[C@]2(C)C(=O)O1 ?
Out: < 4.00

Where these numbers come from: ChEMBL document CHEMBL4813956
